tested on: T47D; experiment: NCI tumour cell line growth inhibition, 48 h
Activity calls are given as the source filed them. No stated cut-off is given here; in the data, active = GI50 up to about 1.1 µM and inactive = higher.
Recorded measurements of GI50, one per entry
reported property: GI50

[[record]]
compound = "OC1c2[nH]c3ccccc3c2CCN2CCCCC12 (stereo unspecified)"
study_system = "T47D"
reported_property = "GI50"
observed = "> 100 µM (inactive)"

[[record]]
compound = "CCNC(=O)/C(=C/c1ccc(OC)cc1)c1cc(OC)c(OC)c(OC)c1"
study_system = "T47D"
reported_property = "GI50"
observed = "> 20.4 µM (inactive)"

[[record]]
compound = "[O-][N+]1=C2CCC/C(=N/O)C2(O)C2CCCCC21N1CCOCC1 (stereo unspecified)"
study_system = "T47D"
reported_property = "GI50"
observed = "> 100 µM (inactive)"

[[record]]
compound = "N#CCCN(CCC#N)c1ccc(C(=N/c2ccc(Cl)cc2)/N=N/c2ccc(Cl)cc2)cc1"
study_system = "T47D"
reported_property = "GI50"
observed = "7.6 µM (inactive)"

[[record]]
compound = "O=C(NCP(=O)(Oc1ccccc1)Oc1ccccc1)OCc1ccccc1"
study_system = "T47D"
reported_property = "GI50"
observed = "> 100 µM (inactive)"

[[record]]
compound = "c1csc(-c2csc(-c3cccs3)c2)c1"
study_system = "T47D"
reported_property = "GI50"
observed = "3.2 µM (inactive)"


Values from ChEMBL document CHEMBL1201862
